# Tested on: SW-620
# ASSAY_SUMMARY: NCI tumour cell line growth inhibition, 48 h
Activity calls are given as the source filed them. Cut-off read from the data, not from the text of the source: active = GI50 up to about 1.1 µM and inactive = higher.
For each entry below, report its GI50 value.

Request: Quick one: GI50 of COc1ccc(CCn2ccc(C)n2)c(OC)c1 ?
Response: > 100 µM (inactive)

Request: Please report the recorded GI50 for Nc1ccc(-c2nn3c(COc4ccc(Cl)cc4)nnc3s2)cc1 .
Response: > 100 µM (inactive)

Request: Recorded GI50 of Nc1nc(Cl)cc(NCC2(CO)CCC(OCc3ccccc3)C2)n1 (centres undefined) , please.
Response: 60 µM (inactive)

Request: Dear colleague, I am looking for the recorded GI50 of the following compound: CC(C)[Si]1(C(C)C)OCC2OC(n3c(C(=O)c4ccccc4)cc(=O)[nH]c3=O)CC2O[Si](C(C)C)(C(C)C)O1 (centres undefined)
Response: 2.81 µM (inactive)

Request: Requested field: GI50. Item: CCCN1C(=O)CCC2=C1CCc1c2ccc(Cl)c1Cl
Response: 48.4 µM (inactive)

Request: Give the measured GI50 of CNC(=O)[C@H](Cc1ccccc1)NC(=O)N(CCC#N)CCN(C(=O)N[C@@H](Cc1ccccc1)C(=O)OC)c1ccccc1 .
Response: > 100 µM (inactive)

Request: Given the entry COC(=O)C1=C(C)N(NC(=O)Nc2ccccc2)C2(N)N(NC(=O)Nc3ccccc3)C(C)=C(C(=O)OC)C12C(=O)OC (centres undefined) , report its measured GI50.
Response: 63.4 µM (inactive)

Request: # input compound: COc1ccc(NC2Oc3cc4c(cc3C(c3cc(OC)c(O)c(OC)c3)C2C)OCO4)cc1 (centres undefined) ; wanted: its GI50
Response: 3.5 µM (inactive)

Request: Item CC1CC/C(=C\c2ccc(F)cc2)C2=C1C(c1ccc(F)cc1)n1c(s/c(=C\c3ccc(Cl)cc3)c1=O)=N2 (centres undefined) has what recorded GI50?
Response: > 100 µM (inactive)

###

# Tested on: HOP-92
# ASSAY_SUMMARY: NCI tumour cell line growth inhibition, 48 h
Active and inactive are the calls of the source. Cut-off read from the data, not from the text of the source: active = GI50 up to about 1.1 µM and inactive = higher.
TEST_READOUT: GI50

Request: API: value(readout=GI50, system=HOP-92) for record O=C(OCC12CC3CC(CC(C3)C1)C2)c1ccc(NCc2cc(O)ccc2O)cc1
Response: 3.66 µM (inactive)

Request: API: value(readout=GI50, system=HOP-92) for record C[C@]12CC[C@H](OC(=O)Cc3ccc(N(CCCl)CCCl)cc3)CC1=CC[C@@H]1[C@@H]2CC[C@]2(C)C(=O)CC[C@@H]12
Response: > 100 µM (inactive)

Request: What is its GI50 for HOP-92? Entry: CCOC(=N)n1c(=O)n(C2=NCCN2)c2ccccc21
Response: > 100 µM (inactive)

Request: What is its GI50 for HOP-92? Entry: N#Cc1c(-c2ccccc2)c2c([nH]c1=O)-c1cc([N+](=O)[O-])ccc1CCC2
Response: 16.4 µM (inactive)

Request: Look up GI50 with HOP-92 for this molecule: CC(=O)Nc1ccc(S(=O)(=O)N=S(C)C)cc1
Response: > 100 µM (inactive)

Request: So what GI50 did COc1ccc2c(c1)N=C(N)n1c(nc3ccccc31)S2 get with HOP-92?
Response: 11.7 µM (inactive)

Request: What measured GI50 is associated with CC1=N/C(=C/c2ccc3c(c2)OCO3)C(=O)O1 on HOP-92?
Response: > 100 µM (inactive)

###

# Test system: NCI-H460
# ASSAY_SUMMARY: NCI tumour cell line growth inhibition, 48 h
Activity calls are given as the source filed them. No stated cut-off is given here; in the data, active = GI50 up to about 1.1 µM and inactive = higher.
Choose the fitting class; nothing outside T for active, F for inactive is accepted.

Request: Please let me know the test result on file for Cc1c(/N=N/c2ccc(Cl)cc2)c(C)n(C2OC(CO)C(O)C(O)C2O)c(=S)c1C#N (configuration not stated) .
Response: F

Request: Look up the recorded call for CCCn1cnc2c(SCC(=O)O)nc(N)nc21 in this test.
Response: F

Request: // return assay outcome for C=C1c2nc3ccccc3n2C=C(c2ccc(Cl)cc2)N1c1ccc(OC)cc1
Response: F

Request: // param item: CC1CCC(=O)C(C(O)CC2CC(=O)N(c3ccccc3)C(=O)C2)C1 (configuration not stated) ; yields the recorded call
Response: F

Request: For [N-]=[N+]=CC(=O)CCC(NC(=O)C(CCC(=O)C=[N+]=[N-])NC(=O)CCC(N)C(=O)O)C(=O)O (configuration not stated) , what call appears in the results of this test?
Response: F

Request: Outcome logged for O=C(/C=C/c1ccccc1)Oc1cccc(O)c1 in this assay:
Response: F

Request: So what was the verdict on CCCCCCOP(=O)(OCCCCCC)C(NC(=O)OCC)(C(F)(F)F)C(F)(F)F in this test?
Response: F

Request: For this molecule, state the assay outcome: CCCNC(=O)Cn1c(C)cc2ccccc21
Response: F

Request: Please let me know the test result on file for CCOC(=O)/C=C1\Oc2ccccc2C1(C)O (configuration not stated) .
Response: F

Request: Outcome? Cc1cc(NS(=O)(=O)c2ccc(Nc3c4ccccc4nc4c(C(=O)NCCN(C)C)cccc34)cc2)no1
Response: T

Request: Which outcome did this test record for the molecule O=C(c1ccc(Cl)cc1)N(C(=S)N1CCN(c2ccccn2)CC1)C1CCCCC1 ?
Response: F

Request: Tell me the assay call for C[C@]12CCC(=O)C=C1CC[C@@H]1C2CC[C@]2(C)NC(=O)C(C#N)CC12 (some centres not stated) please.
Response: F

Request: Give the logged outcome of this assay for the following molecule: O=c1cnn(C/C=C\CO)c(=O)[nH]1
Response: F

Request: Given C/C(=N\Nc1nc2ccccc2s1)c1ncccn1 , state the outcome it received in this test.
Response: T

Request: Name the outcome recorded for CC1=C(c2ccc(C)cc2)NC(=S)C(C)C(c2ccc(C)cc2)=N1 (configuration not stated) in the assay.
Response: F

Request: Status in this test for COC(=O)c1c(O)ccc2c1C1(Cc3ccccc3C1=O)C(O)O2 (configuration not stated) ?
Response: F

Request: Record lookup: outcome of this test for CC1(C)CC(C#Cc2ccccc2)CC(C)(C)N1O ?
Response: F

Request: Recorded call for COc1ccc(NC(=O)CC(=O)N/N=C/c2ccc(N(CCC#N)S(C)(=O)=O)cc2)cc1 ?
Response: F

Request: For O=P(c1ccccc1)(c1ccccc1)C(NCc1ccccc1)c1ccc(F)cc1 (configuration not stated) , which call appears in the assay record?
Response: F

Request: What call does the record list for O=c1cc(NCc2ccncc2)[nH]c(=O)[nH]1 ?
Response: F

Request: Per the assay record, what outcome was assigned to O=C(O)C1NCCc2c1[nH]c1ccccc21 (configuration not stated) ?
Response: F

Request: Outcome? CC1=CCC2CC1C(C(=O)c1c[nH]c3ccccc13)=NC2(C)C (configuration not stated)
Response: F

Request: # outcome recorded in this test, key = N#CC(C#N)=C1C(C#N)=C(N)NC12OCCO2
Response: F

Request: Dear colleague, could you share the recorded outcome for O=c1[nH]nc2ccccc2c1Cc1ccccc1 when you have a moment?
Response: F

Request: Called result for CC1(C)C2CCC1(C)[C@H](O)[C@H]2Nc1cc(C(F)(F)F)cc(C(F)(F)F)c1 (some centres not stated)
Response: F

Request: Hey, what did the test say about COC(=O)c1ccc(/C=C/S(=O)(=O)c2ccccc2)cc1 ?
Response: F

Request: Tell me the recorded outcome of this test for NCCCCNCCCNC(=O)c1nc(-c2nc(CCN)sc2Cl)sc1Cl .
Response: F

Request: Answer briefly: the call reported for Nc1n[nH]c2c(C(=O)Nc3ccc(Cl)cc3)c(N)n(N)c(=O)c12 in this assay.
Response: F

Request: Can you look up the reported call for Cc1ccc(S(=O)(=O)N(c2ccccc2F)C2CCCCC2O)cc1 (configuration not stated) for me?
Response: F

Request: Give the logged outcome of this assay for the following molecule: COC(=O)C(/C(=N/N)C(=O)Nc1cc(Cl)ccc1Cl)c1nc2ccc([N+](=O)[O-])cc2nc1O (configuration not stated)
Response: F

Request: Please let me know the test result on file for Cc1ccc2c(c1)CC1(Cc3c(C)cccc3C1=O)C2=O (configuration not stated) .
Response: F

Request: Hello, I am checking results. What call was entered for C[C@]12CC[C@H](O)C[C@H]1CC[C@@H]1[C@@H]2CC[C@]2(C)[C@@H](C3=CC(=O)OC3)CC[C@]12O [DIGITOXIGENIN] ?
Response: T

Request: For CC(=O)Nc1ccc(S(=O)(=O)N=S(C)C)cc1 , which call appears in the assay record?
Response: F

Request: Test call, this molecule: O=C(NS(=O)(=O)OCC(Cl)(Cl)Cl)SCCC(F)(F)C(F)(F)C(F)(F)C(F)(F)C(F)(F)C(F)(F)F
Response: F

Request: Hi, do you know how O=C(O)c1ccccc1/N=N/c1ccc2oc(=O)c(C(=O)Nc3ccccc3)cc2c1 came out in this test?
Response: F

Request: Assay outcome for CC(C)C1=CC2=C(C(=O)C1=O)C13CCCC(C)(C)C1CC2OC3=O (configuration not stated) : what was it?
Response: F

Request: Dear all, I need the recorded test outcome for COc1ccc(CCN2C(=O)C(=O)C(C(=O)c3ccccc3)C2c2ccccc2)cc1OC (configuration not stated) , thank you.
Response: F

Request: Please let me know the test result on file for CCC(CC)NC1=C(NC(C)=O)C(=O)c2ccccc2C1=O .
Response: F

Request: Returns: the outcome recorded for N#Cc1ccc(/C=N/C23CC4CC(CC(C4)C2)C3)cc1 in this assay.
Response: F

Request: For this molecule, state the assay outcome: CC(=O)OCC1OC(Nc2ccc3nc(C)n(-c4ccccc4)c(=O)c3c2)C(OC(C)=O)C(OC(C)=O)C1OC(C)=O (configuration not stated)
Response: F

Request: I'd appreciate the recorded outcome for CCc1c(-c2coc(CC/C(C)=C/c3ccccc3)n2)oc(OC)c(C)c1=O from this test.
Response: F

Request: Which outcome was assigned to COC(=O)[C@]12CC[C@H]3CN(C(=O)OCc4ccccc4)[C@H]([C@H]31)[C@H](c1ccccc1)N2 in this test?
Response: F
